Reported growth values are given for each entry in this list.
- Test system: HCC-2998 colon
- protocol.details: NCI-60 one-dose screen, 48 h (100 = growth as untreated, 0 = no growth, -100 = all killed)
- measurement.conditions: 10 µM unless noted
This is part of a sample that, as a whole, favours compounds with a hit. Of some 83,000 tested, about 20% had one in any assay. The source made the active and inactive calls. The calls were made as follows: active = growth percent below 10; inactive = the rest.

Here are 5 compounds together with their reported answers.
Cc1c(C(=O)NNC(=O)c2ccc(Cl)cc2)nnn1-c1ccc(Cl)cc1 = 109% (inactive)
Cc1ccc(-c2nc(Nc3ccccc3S(N)(=O)=O)c3ccccc3n2)cc1 = 104% (inactive)
Cn1cc(-c2nnc(N)nc2-c2c[nH]c3ccccc23)c2cccnc21 = 81% (inactive)
CC(=O)OC[C@@]1(C)C2CC[C@]3(C)C(CC=C4C5CC(C)(C)CC[C@]5(C(=O)Nc5ccc(C)cc5)CC[C@]43C)[C@@]2(C)C[C@@H](OC(C)=O)[C@@H]1OC(C)=O (stereo partly drawn) = 44.8% (inactive)
Cc1ccc(/C=C/c2n(Cc3ccc4ccccc4c3)c3ccccc3[n+]2Cc2ccc3ccccc3c2)cc1 = -87.3% (active)

Please report the recorded growth for O=C1CC(Sc2n[nH]c(-c3ccncc3)n2)C(=O)N1c1ccc(Br)cc1 (stereo not drawn) .
110% (inactive)

Here is the next compound: CC12CC[C@@H]3[C@]4(C)COC(c5cn[nH]c5-c5ccc(Cl)cc5)O[C@@H]4CC[C@@]3(C)[C@@H]1CC(C1=CCOC1=O)O2 (stereo partly drawn)
58% (inactive)

Here is the next compound: O=C1C(=Nc2ccc(F)c(Cl)c2)c2cccc3cccc1c23
108% (inactive)

* * *

- Test system: UO-31 renal
- protocol.details: NCI-60 one-dose screen, 48 h (100 = growth as untreated, 0 = no growth, -100 = all killed)
- measurement.conditions: 10 µM unless noted
- Experimental: Growth inhibition of the UO-31 human tumor cell line is measured as a screen for anti-cancer activity. Cells are grown in 96 well plates and exposed to the test compound for 48 hours. Compounds are tested at a single concentration, which is 10^-5 M for most compounds. The reported endpoint is percent growth (GI% or GIPRCNT), where numbers from 0 - 100% represent growth inhibition, and numbers from -100% - 0 represent cell death. For example, a value of 40 represents 60% growth inhibition. […]
Compounds without any hit were thinned out: in the full panel of roughly 83,000, 20% have a hit.
Cut-off 60% on growth, inclusive. At or above means true; below means false.

Past entries and their recorded results:
COc1cc(/C=C2\C(=N)N=C(SCc3nc4ccccc4[nH]3)NC2=O)ccc1O = true
O=C(C1=CNC(=S)NC1c1ccc(O)cc1)c1cc2ccccc2oc1=O (centres undefined) = true
COc1cc2oc(-c3cccc(NC(=O)[C@H](Cc4ccccc4)NC(=O)OC(C)(C)C)c3)cc(=O)c2c(OC)c1OC = false
CC(=O)Nc1cccc(-c2nc3cc(-c4ccc(O)cc4)ccc3n2C)c1 = false
O=C(NNc1nc2cc(F)ccc2n2c(CN3CC4CNCC4C3)ccc12)c1ccncn1 (centres undefined) = false

Could you verify whether the entry Cc1ccc(C2=NN(c3nc(-c4cc5ccccc5oc4=O)cs3)C(c3ccc(C)cc3)C2)cc1 (centres undefined) shows growth of no less than 60%?
true

Here is the next compound: COc1cccc(/C=C/C(=O)c2ccc(OC)c(S(N)(=O)=O)c2)c1
false

Here is the next compound: COc1ccc(/C=C/c2n(Cc3ccc4ccccc4c3)c3ccccc3[n+]2Cc2ccc3ccccc3c2)cc1
false

* * *

- System: SNB-19 CNS
- protocol.details: NCI-60 one-dose screen, 48 h (100 = growth as untreated, 0 = no growth, -100 = all killed)
- measurement.conditions: 10 µM unless noted
This is part of a sample that, as a whole, favours compounds with a hit. Of some 83,000 tested, about 20% had one in any assay.
measured.quantity: growth (%)
// note: answer is a bare numeric in %

Here are 5 compounds together with their reported answers.
COc1ccc(-c2nc3cc(C)ccc3n2CC(=O)N=Nc2c(O)[nH]c3ccccc23)cc1 = 19.1
C#CCOc1ccc(/C=N/Nc2nc(-c3cc4cc(Br)ccc4oc3=O)cs2)cc1OC = 49.6
CC(=O)/C=C/c1cccc2c1C(=O)NC(C)(c1cc3cc(Br)ccc3oc1=O)N2 (stereo unspecified) = 51.8
O=C(NN1C(=O)/C(=C/C=C/c2ccc([N+](=O)[O-])o2)SC1=S)c1ccccc1O = -96.1
O=C(NNc1nc2cc(C(F)(F)F)ccc2n2cccc12)c1cnccn1 = -56.6

Note: attention shifts to another entry.
Please report the recorded growth for CC1CN(c2oc(-c3ccc([N+](=O)[O-])cc3)nc2C#N)CC(C)O1 (stereo unspecified) .
92.2

* * *

- Tested on: OVCAR-3 ovarian
- protocol.details: NCI-60 one-dose screen, 48 h (100 = growth as untreated, 0 = no growth, -100 = all killed)
- measurement.conditions: 10 µM unless noted
Compounds without any hit were thinned out: in the full panel of roughly 83,000, 20% have a hit.
Assign classes using reported growth values and the ranges one (below 20%), two (20% to below 60%), three (60% or more), please.

Hi, small favor: classify O=C1N/C(=N\c2nccs2)S/C1=C\C=C/c1ccccc1 by its growth when you get a moment.
two

* * *

- Tested on: DU-145 prostate
- protocol.details: NCI-60 one-dose screen, 48 h (100 = growth as untreated, 0 = no growth, -100 = all killed)
- measurement.conditions: 10 µM unless noted
This is part of a sample that, as a whole, favours compounds with a hit. Of some 83,000 tested, about 20% had one in any assay.
Cut-off 50% on growth, inclusive. At or above means Met; below means Not met.

COc1ccccc1/C=C/C(=O)c1ccc(OC)c(S(N)(=O)=O)c1 = Not met

Could you verify whether the entry CC(=O)OC[C@@]1(C)C2CC[C@]3(C)C(CC=C4C5CC(C)(C)CC[C@]5(C(=O)Nc5ccc(F)cc5)CC[C@]43C)[C@@]2(C)C[C@@H](OC(C)=O)[C@@H]1OC(C)=O (stereo partly drawn) shows growth of no less than 50%?
Not met

Here is the next molecule: CSc1ccc(NC(=O)c2ccc3nnn(/C(C#N)=C/c4ccccn4)c3c2)cc1
Not met

Here is the next molecule: Cc1cccc(NC(=O)CN2CCN(c3ncnc4c3cnn4-c3ccccc3)CC2)c1
Met

Here is the next molecule: C/C(=N\N=C1/C(=O)Nc2ccccc21)c1ccc2c(c1)Nc1ccccc1S2
Met

Here is the next molecule: CCOc1ccc(-c2c(C#N)c(-c3ccc(Cl)cc3)nc3n[nH]c(-c4ccc(Cl)cc4)c23)cc1OC
Met

Here is the next molecule: CC(C)c1ccc2c(N)c(C(=O)Nc3cccc(C(F)(F)F)c3)sc2n1
Met

Here is the next molecule: CC12CC[C@@H]3[C@]4(C)COC(c5cn[nH]c5-c5cccc(Br)c5)O[C@@H]4CC[C@@]3(C)[C@@H]1CC(C1=CCOC1=O)O2 (stereo partly drawn)
Met

* * *

- Tested on: HS 578T breast
- protocol.details: NCI-60 one-dose screen, 48 h (100 = growth as untreated, 0 = no growth, -100 = all killed)
- measurement.conditions: 10 µM unless noted
This is part of a sample that, as a whole, favours compounds with a hit. Of some 83,000 tested, about 20% had one in any assay.
Cut-off 90% on growth, inclusive. At or above means criterion met; below means criterion not met.

Past entries and their recorded results:
COc1ccc(/C=C2\C(=N)N=C(SCc3nc4ccccc4[nH]3)NC2=O)cc1 = criterion met
CC(=O)NNc1ccc2nnc(-c3ccccc3)n2n1 = criterion met
CC12CC[C@@H]3[C@]4(C)COC(c5cn[nH]c5-c5ccc(Br)cc5)O[C@@H]4CC[C@@]3(C)[C@@H]1CC(C1=CCOC1=O)O2 (stereo not given in full) = criterion not met

For the next question, use this compound.
Could you verify whether the entry COc1ccccc1/C=C/C(=O)c1ccc(OC)c(S(N)(=O)=O)c1 shows growth of no less than 90%?
criterion not met

* * *

- System: UACC-62 melanoma
- protocol.details: NCI-60 one-dose screen, 48 h
- measurement.conditions: 10 µM unless noted
This is part of a sample that, as a whole, favours compounds with a hit. Of some 83,000 tested, about 20% had one in any assay. Activity calls are given as the source filed them. How the source made its calls: active means growth percent below 10; inactive means the rest.
Select the correct class. Options are active, inactive and nothing else.

Cn1cc(-c2nnc(N)nc2-c2c[nH]c3ccccc23)c2cccnc21 = inactive
COc1ccc(/C=C/c2nc3ccccc3c(=O)n2CC(=O)Nc2ccc(Cl)cc2)cc1 = inactive
CCC(C)(C)c1ccc(OCCCCN2CCN(c3ccncc3)CC2)cc1 = active
O=C(Cn1c(/C=C/c2cccc([N+](=O)[O-])c2)nc2ccccc2c1=O)Nc1ccccc1 = inactive

# fetch the recorded call for CN(C)c1ccnc(CNCCSC2(c3ccc(C(F)(F)F)cc3)c3ccccc3C=Cc3ccccc32)c1 here
active

Here is the next compound: CN1CCN(c2ccc3c(c2)nc(NNC(=O)c2cnccn2)c2cccn23)CC1
active

Here is the next compound: CN(C)CCn1c2ccccc2c2nc3ccc([N+](=O)[O-])cc3nc21
active

Here is the next compound: COc1cc2oc(-c3cccc(NC(=O)[C@H](Cc4ccccc4)NC(=O)OC(C)(C)C)c3)cc(=O)c2c(OC)c1OC
inactive

Here is the next compound: C=C1CCC2C3(C)COC(c4ccco4)OC3CCC2(C)C1CC(Sc1ccccc1)C1=CCOC1=O (stereo not drawn)
inactive

Here is the next compound: C=Cn1cc(C(=O)O)c(=O)c2cc(F)c(N3CCN(c4nccc(-c5nccs5)n4)CC3)cc21
active

Here is the next compound: Cc1ccc(S(=O)(=O)c2nc(S(=O)(=O)c3ccc(C)cc3)c(Cl)s2)cc1
inactive

Here is the next compound: COc1c(F)ccc(C(=O)Nc2ccc3nc(NC(=O)C4CCCN(S(=O)(=O)c5cccc(Cl)c5)C4)sc3c2)c1F (stereo not drawn)
inactive

Here is the next compound: COc1cccc(-c2c(C#N)c(-c3ccc(Cl)cc3)nc3n[nH]c(-c4ccc(Cl)cc4)c23)c1
inactive

Here is the next compound: COc1ccc(-c2nc3ccc(C(=O)NN4C(=O)c5ccc([N+](=O)[O-])cc5C4=O)cc3[nH]2)cc1
inactive

Here is the next compound: C/C(=N\N=C\c1cc([N+](=O)[O-])ccc1Cl)c1ccc2c(c1)Nc1ccccc1S2
inactive

Here is the next compound: COc1cccc(-c2nc(Nc3ccc(S(N)(=O)=O)cc3)c3ccccc3n2)c1
inactive

Here is the next compound: Cn1cc(-c2cc(N)n3nc(-c4cn(C)c5ncc(Br)cc45)cc3n2)c2cc(Br)cnc21
active

Here is the next compound: CC(=O)Oc1ccc(/C=C/C(=O)N[C@@H](Cc2ccccc2)C(O)C(=O)NCc2ccccc2)cc1OC(C)=O (stereo partly drawn)
inactive
